Conditions: buffer; pH 7.4; 6.0 h; 150.0 µM
Give measured log10(solubility kinetic) for each item. Keep answers brief.
In our notation, the value equals log10 of solubility kinetic in µg/mL.

Inquiry: Give the value of log10(solubility kinetic) reported for the following: CC1CCc2ccc(F)cc2N1S(=O)(=O)c1cccs1 (stereo unspecified)
Reply text: 0.49

Inquiry: Give the value of log10(solubility kinetic) reported for the following: Oc1ccc(NCc2ccccc2OCc2ccccc2Cl)cc1
Reply text: 0.52

Inquiry: Give the value of log10(solubility kinetic) reported for the following: Cc1cccc(C)c1Nc1c(-c2cccs2)nc2ncccn12
Reply text: 0.54

Inquiry: Give the value of log10(solubility kinetic) reported for the following: O=C(Nc1cccc(F)c1)c1cc(-c2ccc[nH]2)n[nH]1
Reply text: 0.25

Inquiry: Give the value of log10(solubility kinetic) reported for the following: Fc1cnc(-c2ccccc2C(F)F)nc1NCC1CCN(c2cnccn2)C1 (stereo unspecified)
Reply text: 1.63

Inquiry: Give the value of log10(solubility kinetic) reported for the following: COc1cccc(C(=O)Nc2nc(-c3nnn(-c4ccccc4C(F)(F)F)c3C)ns2)c1
Reply text: 0.01
